Taken from the RepoRT retention time repository (doi:10.1038/s41597-019-0305-1).

# maps each entry to its LC retention time
Experiment: RP, Waters SunFire C18, 50 × 4.6 mm, 3.5 µm, 0.5 mL/min, estimated dead time 1.1 min; A: water + 0.1% formic acid; B: acetonitrile + 0.1% formic acid; gradient (min/%B) 0/5 7/100 8/100
Conditions: stereoisomer not certain
Write the value in min as a bare number.

[[record]]
compound = "CC(=O)CCCCCCCCCCCCCC1OC(=O)C(C)=C1C(=O)O (centres undefined)"
numeric_value = 6.9

[[record]]
compound = "CCCCCc1cc(OC(=O)c2c(CCCCC)cc(OC)cc2OC)cc(OC)c1C(=O)O"
numeric_value = 7.52

[[record]]
compound = "COc1cc(C)c(C(=O)Oc2cc(C)c(C(=O)O)c(O)c2)c(O)c1C"
numeric_value = 6.54


Data request: Fill in LC retention time for record CCCc1cc(OC)cc(O)c1C(=O)Oc1c(OC)cc(CCC)c(C(=O)O)c1O
Data returned: 7.83

Data request: Return the recorded LC retention time value; entry: COc1cc(C)c(C(=O)Oc2cc(C)c(C(=O)O)c(O)c2)c(O)c1
Data returned: 6

Data request: Identify LC retention time associated with the compound CC(=O)OCc1c(O)c(C(=O)O)c(C)c2c1OC(=O)c1c(C)cc(O)c(C=O)c1O2
Data returned: 7.28

Data request: Using the record for CCCCCC(=O)Cc1cc(O)cc2c1C(=O)Oc1cc(O)c(C(=O)O)c(CCCCC)c1O2 , state its measured LC retention time.
Data returned: 7.13

###

Assay: RP, Waters SunFire C18, 50 × 4.6 mm, 3.5 µm, 0.5 mL/min, estimated dead time 1.1 min; A: water + 0.1% formic acid; B: acetonitrile + 0.1% formic acid; gradient (min/%B) 0/5 7/100 8/100
Conditions: stereoisomer not certain
measured parameter: LC retention time (min)
Your answer should be a plain number; it is taken to be in min.

Below, each entry is followed by its recorded LC retention time result.
[[record]]
molecule = "Cc1cc(OC(=O)c2c(C)cc(O)cc2O)cc(O)c1C(=O)OCC(O)C(O)CO (configuration not stated)"
unit_tag = "min"
numeric_value = 4.52

[[record]]
molecule = "Cc1cc(O)cc2oc3cc(O)cc(O)c3c(=O)c12"
unit_tag = "min"
numeric_value = 5.15

[[record]]
molecule = "Cc1cc(O)c(C=O)c2c1C(=O)Oc1c(CO)c(O)c3c(c1O2)C(O)OC3=O (configuration not stated)"
unit_tag = "min"
numeric_value = 4.51

[[record]]
molecule = "CCCCCc1cc2cc(O)cc(O)c2c(=O)o1"
unit_tag = "min"
numeric_value = 6.08


Data request: Tell me measured LC retention time for Cc1cc(O)cc(O)c1C(=O)Oc1cc(C)c(C(=O)Oc2c(O)cc(O)c(C(=O)O)c2C)c(O)c1 please.
Data returned: 5.63

Data request: Output LC retention time of COC1=CC(=O)c2c(O)c3c(c(O)c2C1=O)C(O)C(C)OC3=O (configuration not stated)
Data returned: 4.23

Data request: Please give the documented LC retention time of COc1cc(C)c(C(=O)Oc2cc(C)c(C(=O)O)c(O)c2C)c(O)c1C(=O)O
Data returned: 5.79

###

A collection of compounds and their measured LC retention time
Assay: RP, Waters SunFire C18, 50 × 4.6 mm, 3.5 µm, 0.5 mL/min, estimated dead time 1.1 min; A: water + 0.1% formic acid; B: acetonitrile + 0.1% formic acid; gradient (min/%B) 0/5 7/100 8/100
Conditions: stereoisomer not certain

Below are worked cases with known answers.
[[record]]
compound = "CC(=O)OCC1OC(Oc2cc(O)c3c(=O)cc(C)oc3c2C)C(OC(C)=O)C(OC(C)=O)C1O (centres undefined)"
result = "5.4 min"

[[record]]
compound = "O=C1c2oc3cc(O)c(O)cc3c2C(=O)c2oc3cc(O)c(O)cc3c21"
result = "4.52 min"

[[record]]
compound = "COC1=CC(=O)c2c(OC(C)=O)c3c(c(O)c2C1=O)CC(C)OC3=O (centres undefined)"
result = "6.99 min"


Now examine the next entry.
Data request: Identify measured LC retention time associated with COc1cc(OC(=O)c2c(C)cc(O)cc2O)cc(C)c1C(=O)Oc1cc(C)c(C(=O)O)c(O)c1
Data returned: 6.2 min
